Target or system HPK1 (Homo sapiens, UniProt Q92918); recorded quantity IC50.

(Q) Consider the compound shown here: CC(C)c1cccc(-c2cc(Nc3ccc(N4CCC(O)CC4)cn3)c3c(=O)[nH]ccc3n2)c1 What is its recorded IC50?
(A) 0.1 to 1 µM

(Q) Try this compound too: O=c1[nH]ccc2nc(C3CCCC3)cc(Nc3ccc(N4CCC(O)CC4)cn3)c12
(A) 0.1 to 1 µM

(Q) Here is the next compound: COc1cc(-c2cc(Nc3ccc(N4C[C@H]5CC[C@@H](C4)O5)cn3)c3c(=O)[nH]ccc3n2)c(F)cc1C(=O)N1CCCCC1
(A) 0.1 to 1 µM

(Q) Now consider COc1ccc(F)c(-c2cc(Nc3ccc(N4CCNCC4)cn3)c3c(=O)[nH]ccc3n2)c1F and answer again.
(A) ≤ 0.1 µM

(Q) Next up: O=c1[nH]ccc2nc(-c3cc(CN4CC5(COC5)C4)ccc3F)cc(Nc3ccc(N4CCC(O)CC4)cn3)c12
(A) ≤ 0.1 µM

(Q) Continue with O=c1[nH]ccc2nc(-c3cc(C4COC4)ccc3F)cc(Nc3ccc(N4CCC(O)CC4)cn3)c12
(A) ≤ 0.1 µM

(Q) Now the compound O=c1[nH]ccc2nc(-c3ccc(C4CCCO4)cc3F)cc(Nc3ccc(N4CCC(O)CC4)cn3)c12 (stereo not shown)
(A) > 1 µM

(Q) Repeat with O=C(c1ccc(F)c(-c2cc(Nc3ccc(N4CCC(O)CC4)cn3)c3c(=O)[nH]ccc3n2)c1)N1CCOCC1
(A) 0.1 to 1 µM

(Q) Please answer likewise for CCN(C)C(=O)C(C)(C)c1ccc(Nc2cc(-c3c(F)cccc3F)nc3cc[nH]c(=O)c23)nc1
(A) 0.1 to 1 µM

(Q) Same lookup for COC(=O)c1ccc(-c2cc(Nc3ccc(N4CCC(O)CC4)cn3)c3c(=O)[nH]ccc3n2)c(F)c1 , please.
(A) ≤ 0.1 µM

(Q) // repeat for N#Cc1ccc(F)c(-c2cc(Nc3ccc(N4CCC(O)CC4)cn3)c3c(=O)[nH]ccc3n2)c1 and report
(A) ≤ 0.1 µM

(Q) Subsequent entry: Cc1nc2cc(-c3cc(Nc4ccc(N5CCC(O)CC5)cn4)c4c(=O)[nH]ccc4n3)c(F)cc2o1
(A) > 1 µM

(Q) Likewise for O=c1[nH]ccc2nccc(Nc3ccc(N4CCC(O)CC4)cn3)c12 ?
(A) ≤ 0.1 µM
